Assay Target: Epidermal growth factor receptor (Homo sapiens, UniProt P00533)
Sequence (P00533 whole entry): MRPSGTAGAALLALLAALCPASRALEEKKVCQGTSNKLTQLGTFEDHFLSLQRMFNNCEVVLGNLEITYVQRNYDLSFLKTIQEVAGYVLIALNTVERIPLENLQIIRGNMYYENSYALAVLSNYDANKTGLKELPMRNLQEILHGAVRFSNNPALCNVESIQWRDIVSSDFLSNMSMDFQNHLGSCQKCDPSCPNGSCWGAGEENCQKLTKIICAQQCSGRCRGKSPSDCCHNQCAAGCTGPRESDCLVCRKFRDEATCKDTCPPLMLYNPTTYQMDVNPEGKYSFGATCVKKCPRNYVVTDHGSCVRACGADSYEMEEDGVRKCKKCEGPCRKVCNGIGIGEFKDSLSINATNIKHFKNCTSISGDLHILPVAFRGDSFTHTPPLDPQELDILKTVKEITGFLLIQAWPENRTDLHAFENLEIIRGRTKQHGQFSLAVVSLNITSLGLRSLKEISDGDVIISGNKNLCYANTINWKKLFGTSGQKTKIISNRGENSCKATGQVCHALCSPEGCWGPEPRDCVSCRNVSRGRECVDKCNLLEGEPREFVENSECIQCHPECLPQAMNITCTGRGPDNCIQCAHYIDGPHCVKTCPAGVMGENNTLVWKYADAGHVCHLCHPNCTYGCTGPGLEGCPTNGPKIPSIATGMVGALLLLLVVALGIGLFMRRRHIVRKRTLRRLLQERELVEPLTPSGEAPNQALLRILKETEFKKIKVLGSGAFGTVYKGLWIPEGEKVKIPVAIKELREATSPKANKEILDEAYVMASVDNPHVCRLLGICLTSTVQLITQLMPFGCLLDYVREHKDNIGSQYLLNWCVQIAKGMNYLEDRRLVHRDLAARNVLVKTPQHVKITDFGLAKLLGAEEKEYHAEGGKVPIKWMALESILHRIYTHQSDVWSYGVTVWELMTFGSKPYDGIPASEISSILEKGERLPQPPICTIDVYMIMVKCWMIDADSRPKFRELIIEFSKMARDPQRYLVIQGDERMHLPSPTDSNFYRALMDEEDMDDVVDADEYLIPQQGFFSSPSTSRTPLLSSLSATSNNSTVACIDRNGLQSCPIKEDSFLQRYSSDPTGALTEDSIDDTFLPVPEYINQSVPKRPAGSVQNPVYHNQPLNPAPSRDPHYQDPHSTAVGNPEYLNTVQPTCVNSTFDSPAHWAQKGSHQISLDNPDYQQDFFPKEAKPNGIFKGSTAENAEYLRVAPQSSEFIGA

{"Molecule": "Nc1ncnc2occ(-c3ccc(NC(=O)Nc4cc(C(F)(F)F)ccc4F)cc3)c12 [GW770249X]", "IC50 [µM]": 10}

====

Assay Target: RAC-gamma serine/threonine-protein kinase (Homo sapiens, UniProt Q9Y243)
Sequence (Q9Y243 whole entry): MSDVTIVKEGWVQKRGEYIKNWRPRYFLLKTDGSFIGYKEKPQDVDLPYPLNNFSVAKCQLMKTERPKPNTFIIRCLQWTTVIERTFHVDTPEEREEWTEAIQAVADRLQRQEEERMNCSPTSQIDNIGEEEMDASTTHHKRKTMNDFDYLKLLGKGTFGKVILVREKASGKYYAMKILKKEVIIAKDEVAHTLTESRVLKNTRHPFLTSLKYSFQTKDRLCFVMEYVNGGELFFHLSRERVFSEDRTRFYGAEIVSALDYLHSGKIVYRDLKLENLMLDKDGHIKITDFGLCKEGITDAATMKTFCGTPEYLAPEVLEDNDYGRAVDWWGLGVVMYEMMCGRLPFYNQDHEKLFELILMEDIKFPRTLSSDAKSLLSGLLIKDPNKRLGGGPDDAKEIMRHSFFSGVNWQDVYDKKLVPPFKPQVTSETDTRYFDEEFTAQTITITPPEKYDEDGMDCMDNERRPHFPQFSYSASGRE
Quantity: IC50

{"Compound": "Nc1ncnc2occ(-c3ccc(NC(=O)Nc4cc(C(F)(F)F)ccc4F)cc3)c12 [GW770249X]", "Assay Target": "RAC-gamma serine/threonine-protein kinase (Homo sapiens, UniProt Q9Y243)", "Quantity": "IC50", "Test Value": "17.4 µM"}

Taken from ChEMBL document CHEMBL1139135.
